Recorded values, source ChEMBL document CHEMBL1135600.

Below, each entry is listed alongside its reported Vd.
experiment: Volume of distribution during steady state in rat; format: ADME, organism-based; conditions: in vivo, read-out: Vss

# compound, Vd
data = [
    ("CCOC(Cc1ccc(OCCCN2c3ccccc3OCOc3ccccc32)cc1)C(=O)O (configuration not stated)", "0.76 L/kg"),
    ("CCO[C@@H](Cc1ccc(OCCn2c3ccccc3c3ccncc32)cc1)C(=O)O", "0.88 L/kg"),
]

====

experiment: Area under plasma concentration time curve after oral administration at a dose 2.2 mg/kg; type: ADME, organism-based; set-up: dose 2.2 mg/kg, route oral; conditions: plasma, read-out: AUC (converted)

# smiles input, unit label, AUC
records = [
    ("CCO[C@@H](Cc1ccc(OCCn2c3ccccc3c3ccccc32)cc1)C(=O)O", "µg·h/mL", 144),
]

====

biological target: Peroxisome proliferator-activated receptor delta (Homo sapiens, UniProt Q03181); assay: In vitro transcriptional activation of hPPAR delta
Sequence (Q03181 whole entry): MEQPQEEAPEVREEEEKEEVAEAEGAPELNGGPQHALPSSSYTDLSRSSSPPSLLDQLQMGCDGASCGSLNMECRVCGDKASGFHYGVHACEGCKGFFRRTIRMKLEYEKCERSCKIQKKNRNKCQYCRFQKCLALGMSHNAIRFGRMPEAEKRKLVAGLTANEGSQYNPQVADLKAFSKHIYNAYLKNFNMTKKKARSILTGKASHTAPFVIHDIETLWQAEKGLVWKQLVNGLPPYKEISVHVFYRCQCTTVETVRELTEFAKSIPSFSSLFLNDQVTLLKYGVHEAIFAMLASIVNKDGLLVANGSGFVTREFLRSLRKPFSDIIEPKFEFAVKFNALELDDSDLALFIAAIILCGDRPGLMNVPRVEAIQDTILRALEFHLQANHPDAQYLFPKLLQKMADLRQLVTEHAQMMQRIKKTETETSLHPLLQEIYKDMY

# smiles input, EC50 (nM)
records = [
    ("CCCCC[C@H](O)/C=C/[C@@H]1[C@H]2C/C(=C\\CCCC(=O)O)C[C@H]2C[C@H]1O", 2410),
]

====

assay: Oral bioavailability; format: ADME, organism-based; details: eutheria, in vivo

# compound, comparison operator, bioavailability, %
data = [
    ("CCO[C@@H](Cc1ccc(OCCn2c3ccccc3c3ccccc32)cc1)C(=O)O", ">", 100),
    ("CN(CCOc1ccc(CC2SC(=O)NC2=O)cc1)c1ccccn1 (stereo not drawn)", "=", 83),
    ("CCc1ccc(CCOc2ccc(CC3SC(=O)NC3=O)cc2)nc1 (stereo not drawn)", "=", 112),
]

====

assay: Maximum plasma concentration after oral administration at a dose 2.2 mg/kg; format: ADME, organism-based; set-up: dose 2.2 mg/kg, route oral
Below, each entry is listed alongside its reported Cmax.

# molecule, Cmax, ng/mL
records = [
    ("CCO[C@@H](Cc1ccc(OCCn2c3ccccc3c3ccccc32)cc1)C(=O)O", 4430),
    ("CCc1ccc(CCOc2ccc(CC3SC(=O)NC3=O)cc2)nc1 (configuration not stated) [PIOGLITAZONE]", 4660),
]

====

Below, each entry is listed alongside its reported pEC50.
Biological target: Peroxisome proliferator-activated receptor alpha (Homo sapiens)
Sequence (Q07869 whole entry): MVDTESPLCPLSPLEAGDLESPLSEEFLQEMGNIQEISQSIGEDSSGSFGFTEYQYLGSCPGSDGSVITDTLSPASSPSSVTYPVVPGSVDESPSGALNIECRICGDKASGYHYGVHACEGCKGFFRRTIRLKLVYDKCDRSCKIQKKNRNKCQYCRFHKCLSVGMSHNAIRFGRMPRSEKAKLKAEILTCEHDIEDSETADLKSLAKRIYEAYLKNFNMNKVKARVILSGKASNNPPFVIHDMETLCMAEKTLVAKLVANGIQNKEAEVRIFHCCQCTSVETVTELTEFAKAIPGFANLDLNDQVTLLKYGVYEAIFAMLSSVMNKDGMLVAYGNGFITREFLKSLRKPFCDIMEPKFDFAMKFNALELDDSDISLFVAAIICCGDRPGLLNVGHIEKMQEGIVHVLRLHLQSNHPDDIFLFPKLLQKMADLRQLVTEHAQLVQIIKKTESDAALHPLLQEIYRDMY
Experiment: In vitro transactivation using receptor transactivation assay against hPPAR alpha
pEC50: −log10 of the molar value.

# compound, pEC50
records = [
    ("CCOC(Cc1ccc(OCC/C=C2/c3ccccc3COc3ccccc32)cc1)C(=O)O (stereo not given)", 4.91),
    ("CCOC(Cc1ccc(OCCn2c3ccccc3c3ccncc32)cc1)C(=O)O (stereo not given)", 6.17),
    ("CCO[C@@H](Cc1ccc(OCCn2c3ccccc3c3ccccc32)cc1)C(=O)O", 6.44),
    ("CCOC(Cc1ccc(OCCC2c3ccccc3-c3ccccc32)cc1)C(=O)O (stereo not given)", 4.93),
    ("CCOC(Cc1ccc(OCCC2Sc3ccccc3Oc3ccccc32)cc1)C(=O)O (stereo not given)", 5.05),
    ("CCOC(Cc1ccc(OCC=C2c3ccccc3-c3ccccc32)cc1)C(=O)O (stereo not given)", 4.90),
    ("CCO[C@@H](Cc1ccc(OCCN2c3ccccc3Oc3ccccc32)cc1)C(=O)O [RAGAGLITAZAR]", 5.49),
    ("CCOC(Cc1ccc(OCCNC2=Nc3ccccc3Sc3ccccc32)cc1)C(=O)O (stereo not given)", 5.12),
    ("CCO[C@@H](Cc1ccc(OCCn2c3ccccc3c3cc(Br)ccc32)cc1)C(=O)O", 5.62),
    ("CCOC(Cc1ccc(OCCC2c3ccccc3Oc3ccccc32)cc1)C(=O)O (stereo not given)", 5.02),
    ("CCO[C@@H](Cc1ccc(OCCn2c3ccccc3c3ccncc32)cc1)C(=O)O", 6.85),
    ("CCCCC[C@H](O)/C=C/[C@@H]1[C@H]2C/C(=C\\CCCC(=O)O)C[C@H]2C[C@H]1O [CARBACYCLIN]", 6.47),
    ("CCOC(Cc1ccc(OCCN2c3ccccc3C=Cc3ccccc32)cc1)C(=O)O (stereo not given)", 5.02),
    ("CCO[C@@H](Cc1ccc(OCCn2c3ccc(Br)cc3c3cc(Br)ccc32)cc1)C(=O)O", 6.66),
    ("CCOC(Cc1ccc(OCCCN2c3ccccc3OCOc3ccccc32)cc1)C(=O)O (stereo not given)", 5.92),
]

====

Below, each entry is listed alongside its reported Cmax.
test: Maximum plasma concentration after oral administration at a dose 2.2 mg/kg in rat; format: ADME, organism-based; design: dose 2.2 mg/kg, route oral

# compound, Cmax [ng/mL]
measured = [
    ("CCOC(Cc1ccc(OCCCN2c3ccccc3OCOc3ccccc32)cc1)C(=O)O (configuration not stated)", 730),
    ("CCO[C@@H](Cc1ccc(OCCn2c3ccccc3c3ccncc32)cc1)C(=O)O", 527),
]

====

assay: in vivo

# molecule, Vd (L/kg)
rows = [
    ("CCO[C@@H](Cc1ccc(OCCn2c3ccccc3c3ccccc32)cc1)C(=O)O", 0.73),
    ("CCc1ccc(CCOc2ccc(CC3SC(=O)NC3=O)cc2)nc1 (configuration not stated)", 0.22),
]

====

experiment: Area under blood glucose time curve after OGTT on the 9th day of treatment; type: ADME, tissue-based

# molecule, AUC ED50 / mg/kg
data = [
    ("CN(CCOc1ccc(CC2SC(=O)NC2=O)cc1)c1ccccn1 (stereo not given)", 0.77),
    ("CCO[C@@H](Cc1ccc(OCCn2c3ccccc3c3ccccc32)cc1)C(=O)O", 0.4),
    ("CCc1ccc(CCOc2ccc(CC3SC(=O)NC3=O)cc2)nc1 (stereo not given)", 12.09),
    ("CCO[C@@H](Cc1ccc(OCCn2c3ccccc3c3ccncc32)cc1)C(=O)O", 3.32),
    ("CCOC(Cc1ccc(OCCCN2c3ccccc3OCOc3ccccc32)cc1)C(=O)O (stereo not given)", 6.57),
]

====

In what follows, each item is paired with its pEC50 for Peroxisome proliferator-activated receptor gamma (Homo sapiens).
pEC50: −log10 of the molar value.
endpoint name: pEC50

# molecule, data value
records = [
    ("CCOC(Cc1ccc(OCCCN2c3ccccc3CCc3ccccc32)cc1)C(=O)O (stereo unspecified)", 6.12),
    ("CCOC(Cc1ccc(OCC/C=C2/c3ccccc3COc3ccccc32)cc1)C(=O)O (stereo unspecified)", 4.91),
    ("CCOC(Cc1ccc(OCC=C2c3ccccc3-c3ccccc32)cc1)C(=O)O (stereo unspecified)", 4.92),
    ("CCOC(Cc1ccc(OCCN2c3ccccc3CCc3ccccc32)cc1)C(=O)O (stereo unspecified)", 6.12),
    ("CCOC(Cc1ccc(OCCC=C2c3ccccc3CCc3ccccc32)cc1)C(=O)O (stereo unspecified)", 4.78),
    ("CCO[C@@H](Cc1ccc(OCCn2c3ccc(Br)cc3c3cc(Br)ccc32)cc1)C(=O)O", 7.36),
    ("CCOC(Cc1ccc(OCCN2c3ccccc3C=Cc3ccccc32)cc1)C(=O)O (stereo unspecified)", 6.12),
    ("CCO[C@@H](Cc1ccc(OCCn2c3ccccc3c3ccccc32)cc1)C(=O)O", 6.77),
    ("CC(C)(Oc1ccc(CCNC(=O)c2ccc(Cl)cc2)cc1)C(=O)O [BEZAFIBRATE]", 4.13),
    ("CCOC(Cc1ccc(OCCC2c3ccccc3-c3ccccc32)cc1)C(=O)O (stereo unspecified)", 6.31),
    ("CCOC(Cc1ccc(OCCCN2c3ccccc3OCOc3ccccc32)cc1)C(=O)O (stereo unspecified)", 5.92),
]

====

experiment: Maximum plasma concentration after oral administration at a dose 2.2 mg/kg; assay type: ADME, organism-based; set-up: dose 2.2 mg/kg, route oral; conditions: rat

# molecule, Cmax [ng/mL]
rows = [
    ("CN(CCOc1ccc(CC2SC(=O)NC2=O)cc1)c1ccccn1 (stereo unspecified) [ROSIGLITAZONE]", 4420),
]
